So I've got a bunch of binders here, and I need their relative binding ratio values.
target: T1, HLA-B*0702 (human); experiment: inhibition of 125I standard peptide binding to purified HLA
T1 construct: also called B7 supertype prototype molecule

Please review the following examples before continuing.
binder | observed.value
SPGKNGVV (also called Her2/neu.1174) [HER2/neu peptide, position 1174, 8 amino acids] | 0.023 ratio to standard peptide
QPPICTIDV (also called Her2/neu.943) [HER2/neu peptide, position 943, 9 amino acids] | 0.0001 ratio to standard peptide
NPQLCYQDTI (also called Her2/neu.158) [HER2/neu peptide, position 158, 10 amino acids] | 0.0001 ratio to standard peptide
PPGAASTQV (also called Her2/neu.17) [HER2/neu peptide, position 17, 9 amino acids] | 0.0001 ratio to standard peptide
QPPSPREGPL (also called Her2/neu.1148) [HER2/neu peptide, position 1148, 10 amino acids] | 0.0014 ratio to standard peptide

Could I get relative binding ratio for every one of these entries?
1. PPICTIDVYM (also called Her2/neu.944) [HER2/neu peptide, position 944, 10 amino acids]
2. NPEYLGLDV (also called Her2/neu.1245) [HER2/neu peptide, position 1245, 9 amino acids]
3. PPERGAPPSTF (also called Her2/neu.1227) [HER2/neu peptide, position 1227, 11 amino acids]
4. QPEQLQVF (also called Her2/neu.393) [HER2/neu peptide, position 393, 8 amino acids]
5. QPHPPPAF (also called Her2/neu.1206) [HER2/neu peptide, position 1206, 8 amino acids]
6. TPTAENPEYL (also called Her2/neu.1240) [HER2/neu peptide, position 1240, 10 amino acids]

["0.0004 ratio to standard peptide", "0.0001 ratio to standard peptide", "-0.0003 ratio to standard peptide", "-0.0002 ratio to standard peptide", "0.0002 ratio to standard peptide", "0.0002 ratio to standard peptide"]

For each listed entry, give its relative binding ratio.
1. PPICTIDV (also called Her2/neu.944) [HER2/neu peptide, position 944, 8 amino acids]
2. PPPAFSPA (also called Her2/neu.1209) [HER2/neu peptide, position 1209, 8 amino acids]
3. PPICTIDVY (also called Her2/neu.944) [HER2/neu peptide, position 944, 9 amino acids]
4. SPREGPLPA (also called Her2/neu.1151) [HER2/neu peptide, position 1151, 9 amino acids]
5. MPNQAQMRI (T0001 prints N at residue 706; also called Her2/neu.706) [HER2/neu peptide, position 706, 9 amino acids]

1: -0.0006 ratio to standard peptide; 2: -0.0002 ratio to standard peptide; 3: 0.0001 ratio to standard peptide; 4: 0.64 ratio to standard peptide; 5: 0.009 ratio to standard peptide
